# System: SF-539 CNS
# assay.notes: NCI-60 one-dose screen, 48 h
# setup.conditions: 10 µM unless noted
This is part of a sample that, as a whole, favours compounds with a hit. Of some 83,000 tested, about 20% had one in any assay. Activity calls are given as the source filed them. Rule for the calls: active = growth percent below 10; inactive = the rest.
Hi there, use one of these labels in your reply, thanks! active, inactive

Below, 5 compounds whose answers are already recorded.
compound	assigned.class
COc1ccc(C2=NN(C(C)=O)C(c3c(C)nn(-c4ccccc4)c3N3CCOCC3)C2)cc1 (stereo unspecified)	inactive
CN(C)CCC(=O)Nc1ccc(-n2cc(-c3cccc(NC(=S)Nc4cccc(-c5cn(-c6ccc(NC(=O)CCN(C)C)cc6)nn5)c4)c3)nn2)cc1	inactive
c1ccc(CN=C(NCc2ccccc2)NCc2ccccc2)cc1	inactive
Cc1csc(C#Cc2cncc(O)c2)n1	inactive
CCOc1cc(/C=C/C(=O)CC(=O)/C=C/c2ccc(OC(=O)CNCCN(CC)CC)c(OCC)c2)ccc1OC(=O)CNCCN(CC)CC	active

Qu. Check the results log: what was the call for N#Cc1c(-c2ccccc2)cc(-c2ccccc2)n(CCCC(=O)O)c1=O ?
Ans. inactive

Qu. Tell me the recorded outcome of this test for CC(=O)Nc1ccc(C(=O)COc2ccc(/C=C3\CCc4ccccc4C3=O)cc2)cc1 .
Ans. inactive

Qu. Could you check what this test reported for CC[N+](CCCCCCCCCC[N+](CC)(c1ccccn1)c1ccccn1)(c1ccccn1)c1ccccn1 ?
Ans. inactive

Qu. // param item: N/C(=N\c1nc2ccccc2s1)NC(=O)Nc1ccccc1Cl ; yields the recorded call
Ans. active

Qu. Which result was noted for this compound in the test: CSc1nc(N)c2c(n1)N(C)C=NS2(=O)=O
Ans. inactive

Qu. What did the test return for COc1ccc2nc(-c3ccc(Cl)cc3)cc(-c3nnc(SCC(=O)Nc4ccc(C(C)=O)cc4)n3-c3ccccc3)c2c1 ?
Ans. inactive

Qu. Please state the recorded outcome for this compound: Cc1nn2c(/C=C3/C(=O)Nc4cc(Cl)ccc43)c(-c3ccccc3)nc2s1
Ans. active

Qu. Per the assay record, what outcome was assigned to COc1cccc(/C=N/Nc2nc3ccccc3s2)c1OC ?
Ans. inactive

FYI, the data here is from PubChem BioAssay (NCI).
